Assay: pH stability of cycloisomaltotetraose
Type: physicochemical
Settings: 4% (w/v), pH 5, Acetate buffer, 100°C, read-out: Purity of cycloisomaltotetraose (% by weight)
Endpoint Name: remaining at 24 h
Field: value (include unit after the number)

-- ask Consider the molecule shown here: `O[C@@H]1[C@@H](O)[C@H]2OC[C@H]3O[C@H](OC[C@H]4O[C@H](OC[C@H]5O[C@H](OC[C@@H](O2)[C@H]1O)[C@H](O)[C@@H](O)[C@@H]5O)[C@H](O)[C@@H](O)[C@@H]4O)[C@H](O)[C@@H](O)[C@@H]3O` What is its recorded remaining at 24 h?
-- reply 99.4%

----------
Test: pH stability of cycloisomaltotetraose
Format: physicochemical
Details: 4% (w/v), pH 7, Tris-HCl buffer, 100°C, read-out: Purity of cycloisomaltotetraose (% by weight)
Endpoint Name: remaining at 24 h (%)
# unit: % | format: bare number

-- ask Consider the compound shown here: `O[C@@H]1[C@@H](O)[C@H]2OC[C@H]3O[C@H](OC[C@H]4O[C@H](OC[C@H]5O[C@H](OC[C@@H](O2)[C@H]1O)[C@H](O)[C@@H](O)[C@@H]5O)[C@H](O)[C@@H](O)[C@@H]4O)[C@H](O)[C@@H](O)[C@@H]3O` What is its recorded remaining at 24 h?
-- reply 99.5

----------
Test: Thermal stability of cycloisomaltotetraose in aqueous solution
Format: physicochemical
Conditions: water; 7% (w/v) aqueous solution, 120°C, heating time 90 min; read-out: Purity of cycloisomaltotetraose (% by weight)
Endpoint Name: remaining at 1.5 h

-- ask Consider the compound shown here: `O[C@@H]1[C@@H](O)[C@H]2OC[C@H]3O[C@H](OC[C@H]4O[C@H](OC[C@H]5O[C@H](OC[C@@H](O2)[C@H]1O)[C@H](O)[C@@H](O)[C@@H]5O)[C@H](O)[C@@H](O)[C@@H]4O)[C@H](O)[C@@H](O)[C@@H]3O` What is its recorded remaining at 1.5 h?
-- reply 99.5%

----------
Test: Thermal stability of cycloisomaltotetraose in aqueous solution
Format: physicochemical
Details: water; 7% (w/v) aqueous solution, 120°C, heating time 30 min; read-out: Purity of cycloisomaltotetraose (% by weight)
Protocol: An aqueous cycloisomaltotetraose solution with a solid concentration of 7% (w/v) was prepared by dissolving the crystalline cycloisomaltotetraose preparation with a purity of 99.5% by weight, obtained in Experiment 3-1. Eight milliliters each of the aqueous solution was taken in a glass centrifuge tube with a screw cap, sealed, and then heated for 30 to 90 min at 120°C. […] The degree of coloring was defined as the absorbance at 480 nm measured by using a 1-cm cell.
Endpoint Name: remaining at 0.5 h

-- ask Consider the molecule shown here: O[C@@H]1[C@@H](O)[C@H]2OC[C@H]3O[C@H](OC[C@H]4O[C@H](OC[C@H]5O[C@H](OC[C@@H](O2)[C@H]1O)[C@H](O)[C@@H](O)[C@@H]5O)[C@H](O)[C@@H](O)[C@@H]4O)[C@H](O)[C@@H](O)[C@@H]3O [cycloisomaltotetraose] What is its recorded remaining at 0.5 h?
-- reply 99.5%

----------
Experiment: pH stability of cycloisomaltotetraose
Assay type: physicochemical
Details: 4% (w/v), pH 4, Acetate buffer, 100°C, read-out: Purity of cycloisomaltotetraose (% by weight)
Endpoint Name: remaining at 24 h (%)
# unit: % | format: bare number

-- ask Consider the compound shown here: `O[C@@H]1[C@@H](O)[C@H]2OC[C@H]3O[C@H](OC[C@H]4O[C@H](OC[C@H]5O[C@H](OC[C@@H](O2)[C@H]1O)[C@H](O)[C@@H](O)[C@@H]5O)[C@H](O)[C@@H](O)[C@@H]4O)[C@H](O)[C@@H](O)[C@@H]3O` What is its recorded remaining at 24 h?
-- reply 99.4

----------
Assay: Digestivity test using small intestinal mucosal enzyme
Format: in vitro ADME
Settings: rat, small intestine mucosal enzyme, 1% by weight, pH 6.0, 50 units/g-cycloisomaltotetraose, 37°C, read-out: residual rate (%) of cycloisomaltotetraose after the enzymatic reaction
Endpoint Name: remaining at 24 h (%)
# unit: % | format: bare number

-- ask Consider the compound shown here: `O[C@@H]1[C@@H](O)[C@H]2OC[C@H]3O[C@H](OC[C@H]4O[C@H](OC[C@H]5O[C@H](OC[C@@H](O2)[C@H]1O)[C@H](O)[C@@H](O)[C@@H]5O)[C@H](O)[C@@H](O)[C@@H]4O)[C@H](O)[C@@H](O)[C@@H]3O` What is its recorded remaining at 24 h?
-- reply 91.6

----------
System: cycloisomaltotetraose-forming enzyme from Agreia sp. D1110 (NITE BP-02815)
Assay: Substrate specificity of cycloisomaltotetraose-forming enzyme (TLC of reaction mixtures); note: key: - : Not formed; + : Slightly formed; ++ : Formed; +++ : Significantly formed
Type: biochemical
Conditions: substrate 1% (w/v), 20 units/g-solid of enzyme, pH 6.0, 40°C, 24 hours
Endpoint Name: Formation of cycloisomaltotetraose

>  <Compound>
OC[C@H]1O[C@H](OC[C@H]2O[C@H](OC[C@H]3O[C@H](OC[C@H]4O[C@H](OC[C@H]5OC(O)[C@H](O)[C@@H](O)[C@@H]5O)[C@H](O)[C@@H](O)[C@@H]4O)[C@H](O)[C@@H](O)[C@@H]3O)[C@H](O)[C@@H](O)[C@@H]2O)[C@H](O)[C@@H](O)[C@@H]1O (some centres unmarked)

>  <Endpoint Name>
Formation of cycloisomaltotetraose

>  <Result>
++

$$$$
>  <Compound>
OC[C@H]1OC(O)[C@H](O)[C@@H](O)[C@@H]1O (some centres unmarked)

>  <Endpoint Name>
Formation of cycloisomaltotetraose

>  <Result>
-

$$$$
>  <Compound>
OC[C@H]1O[C@H](OC[C@H]2O[C@H](OC[C@H]3O[C@H](OC[C@H]4O[C@H](OC[C@H]5O[C@H](OC[C@H]6O[C@H](OC[C@H]7OC(O)[C@H](O)[C@@H](O)[C@@H]7O)[C@H](O)[C@@H](O)[C@@H]6O)[C@H](O)[C@@H](O)[C@@H]5O)[C@H](O)[C@@H](O)[C@@H]4O)[C@H](O)[C@@H](O)[C@@H]3O)[C@H](O)[C@@H](O)[C@@H]2O)[C@H](O)[C@@H](O)[C@@H]1O (some centres unmarked)

>  <Endpoint Name>
Formation of cycloisomaltotetraose

>  <Result>
+++

$$$$
>  <Compound>
OCC1OC(OCC2OC(OC3C(CO)OC(O)C(O)C3O)C(O)C(O)C2O)C(O)C(O)C1O (centres unmarked)

>  <Endpoint Name>
Formation of cycloisomaltotetraose

>  <Result>
-

$$$$

Here is the next item to consider.
-- ask Consider the compound shown here: OC[C@H]1O[C@H](OC[C@H]2OC(O)[C@H](O)[C@@H](O)[C@@H]2O)[C@H](O)[C@@H](O)[C@@H]1O (some centres unmarked) What is its recorded Formation of cycloisomaltotetraose?
-- reply -

Cited source: patent EP3895711A1
